assay: Validation screen for small molecules that induce genotoxicity in human embryonic kidney (HEK293T) cells expressing luciferase-tagged ELG1 (AID 493106); conditions: luminescence; series mostly up to 46.1 µM
Results filed as inconclusive are left out. Activity calls are given as the source filed them. The call rests on the fitted dose curve; in most records, active means well fitted activation curve with a large enough effect; inconclusive means small, poorly fitted or top-dose-only effect; inactive means no such curve, though single readings can be large or run the other way.
Possible outcomes: active, inactive

| MOLECULE | CLASSIFICATION |
| --- | --- |
| Cc1cccc(/C=C/c2ccccc2)n1 | active |
| Oc1cc2c(c(Cl)c1O)CCNCC2c1ccccc1 (configuration not stated) | inactive |
| C1CCC(N=C(NC23CC4CC(CC(C4)C2)C3)N2CCOCC2)CC1 | inactive |
| N.N.O=C(O)C1(C(=O)O)CCC1.[Pt+2] | inactive |
| CC[N+](CC)(CC)CC | inactive |
| CN1C2CCCC1CC(NC(=O)c1nn(C)c3ccccc13)C2 (configuration not stated) | inactive |
| CCc1ccc(/C=C2/SC(=S)NC2=O)cc1 | inactive |

###

Assay: Tertiary RLuc qRT-PCR qHTS assay for Zika virus inhibitors (AID 1347169); further: nearly all actives have a fitted effect of over 55% in size
Settings: infected Vero cells, reporter luminescence, 48-72 h; series mostly up to 1.74 µM
Procedure: Avindra Nath, Ph.D., National Institute of Neurological Disorders and Stroke (NINDS), Bethesda, MD Radhakrishnan Padmanabhan, Ph.D., Georgetown University (GU), Washington D.C. […] For a follow-up assay, we adapted a high throughput orthogonal assay in 1536-well plate format to use the recombinant virus ZIKV-RLuc, in Vero cells. […] The luminescence signal was measured after 1-1.5 hrs exposure to substrate in ViewLux reader.
Inconclusive results are not listed. Calls of active or inactive are those of the source. Calls follow the shape of the dose curve; as a rule, active = well fitted inhibition curve with a large enough effect; inconclusive = small, poorly fitted or top-dose-only effect; inactive = no such curve, though single readings can be large or run the other way.
Possible outcomes: TRUE = active, FALSE = inactive

| COMPOUND | CLASSIFICATION |
| --- | --- |
| Nc1ncnc2c1ncn2[C@@H]1O[C@H](CSCC[C@H](N)C(=O)O)[C@@H](O)[C@H]1O | FALSE |
| O=C(O)COc1ccccc1C1Nc2ccccc2-c2nnc(SCc3ccc(Cl)cc3)nc2O1 (stereo not drawn) | FALSE |
| COC(=O)c1c(NC(=O)c2cc3nc(-c4ccc(Br)cc4)cc(C(F)(F)F)n3n2)sc2c1CCCC2 | FALSE |
| CCOC(=O)c1c(-c2ccccc2)csc1NC(=O)c1cc(-c2ccc(Cl)cc2)on1 | FALSE |
| Cc1ccc(NC(=O)c2ccc3c(O)c(S(=O)(=O)c4ccc(Cl)cc4)c(=O)[nH]c3c2)cc1 | FALSE |
| O=C(OCC#CCSc1nnc(-c2cccc3ccccc23)o1)c1ccc(Cl)c(C(F)(F)F)c1 | FALSE |
| CS(=O)(=O)c1ccc(-c2cn3ccccc3n2)cc1 | FALSE |
| CCCCc1nn2c(=O)cc(COC(=O)c3ccc(NC(=O)CCc4ccccc4)cc3)nc2s1 | FALSE |
| O=[S+]([O-])([O-])c1ccc2c(c1)cc([S+](=O)([O-])[O-])c1nn(-c3ccc(/C=C/c4ccc(-n5nc6c([S+](=O)([O-])[O-])cc7cc([S+](=O)([O-])[O-])ccc7c6n5)cc4[S+](=O)([O-])[O-])c([S+](=O)([O-])[O-])c3)nc12 | TRUE |
| Cc1ncccc1OCC1CN(Cc2cccc(C(F)(F)F)c2)C(=O)c2c(ccnc2-c2ccc(OCC(=O)O)cc2)O1 (stereo not drawn) | FALSE |
| CN(Cc1cnc2nc(N)nc(N)c2n1)c1ccc(C(=O)NC(CCC(=O)O)C(=O)O)cc1 (stereo not drawn) | FALSE |
| O=C(Nc1cccc(C(=O)OCc2cc(=O)n3c4c(sc3n2)CCCC4)c1)c1cccc(Cl)c1 | FALSE |
| O=S(=O)(Nc1ccc(O)c(Sc2nc3ccccc3s2)c1)c1cc(Cl)ccc1Cl | FALSE |
| Cc1ccc2nc(-c3ccc(N=Nc4cc(S(=O)(=O)O)c5ccccc5c4O)cc3)sc2c1S(=O)(=O)O | FALSE |
| CC(=O)Nc1ccc(S(=O)(=O)O)c2cc(S(=O)(=O)O)c(N=Nc3ccc(N=Nc4ccc(S(=O)(=O)O)cc4)c4ccc(S(=O)(=O)O)cc34)c(O)c12 | FALSE |
| O=C(OCC#CCSc1nnc(-c2ccc(Cl)cc2)o1)c1ccc(F)cc1 | FALSE |
| Cc1ccc(-c2nnc(Nc3ccc(S(N)(=O)=O)cc3)c3ccccc23)cc1S(=O)(=O)N1CCOCC1 | FALSE |
| O=c1c(O)c(Br)ccc2c(Br)c(O)c(O)c(O)c12 | FALSE |
| O=C(O)c1ccc2c(ccc3nn(-c4ccc(/C=C/c5ccc(-n6nc7ccc8cc(C(=O)O)ccc8c7n6)cc5[S+](=O)([O-])[O-])c([S+](=O)([O-])[O-])c4)nc32)c1 | FALSE |
| CCOC(=O)c1ccc(NC(=O)Cn2nnc(-c3ccc(C(F)(F)F)cc3)n2)cc1 | FALSE |
| CCOc1ccccc1NC(=O)c1ccc2oc(=O)c(S(=O)(=O)c3ccc(F)cc3)cc2c1 | FALSE |
| CC(Oc1ccccc1)C(=O)Nc1ccc(C(=O)OCc2cc(=O)n3nc(C(C)C)sc3n2)cc1 (stereo not drawn) | FALSE |
| O=C(Nc1cccc(C(=O)OCc2cc(=O)n3nc(C4CC4)sc3n2)c1)c1cccc(F)c1 | FALSE |
| O=C(OCC#CCSc1nnc(-c2cccc3ccccc23)o1)c1cc(F)c(F)c(F)c1 | FALSE |
| COC(=O)c1ccccc1NC(=O)CSc1nc(-c2ccccc2)cc(C(F)(F)F)n1 | FALSE |
| O=S(=O)(Nc1ccc(O)c(NS(=O)(=O)c2ccccc2)c1)c1ccccc1 | FALSE |
| O=c1oc2ccccc2cc1-c1nnc(Nc2ccc(Cl)cc2Cl)s1 | FALSE |
| CCN(CC)c1ccc(/C=N/NC(=O)c2ccc(O)cc2)cc1 | FALSE |
| COc1ccc(S(=O)(=O)c2c(Nc3cccc(Cl)c3)sc(C(=O)c3ccccc3)c2N)cc1 | FALSE |
| O=C(Nc1cc(C(=O)Nc2ccc(S(=O)(=O)O)cc2S(=O)(=O)O)cc(C(=O)Nc2ccc(S(=O)(=O)O)cc2S(=O)(=O)O)c1)Nc1cc(C(=O)Nc2ccc(S(=O)(=O)O)cc2S(=O)(=O)O)cc(C(=O)Nc2ccc(S(=O)(=O)O)cc2S(=O)(=O)O)c1 | FALSE |
| O=C(O)Cn1nnc(-c2ccc(OCc3cccc(C(F)(F)F)c3)cc2)n1 | FALSE |
| O=C(OCC#CCSc1nnc(-c2cccc3ccccc23)o1)c1ccc(F)cc1F | FALSE |
| CN(CC(=O)N(Cc1ccc(C2CCCCC2)cc1)c1ccc(C(=O)O)cc1)S(=O)(=O)c1c(F)c(F)c(F)c(F)c1F | TRUE |

###

Assay: P-glycoprotein substrates identified in KB-8-5-11 adenocarcinoma cell line, qHTS therapeutic library screen (AID 1346987); further: nearly all actives have a fitted effect of over 65% in size
Conditions: KB-8-5-11 (P-gp overexpressing) viability, CellTiter-Glo, 72 h; series mostly up to 44.5 µM
Experimental: The ATP-binding cassette transporters P-glycoprotein (P-gp) is known to limit brain penetration of many chemotherapy drugs. […] All cell lines were plated into 1536-well plates at 500 cells/well in 5 uL media. […] CellTiter-Glo reagent (Promega) was dispensed into the wells, incubated for 5 min and luminescence was read on a ViewLux instrument (Perkin-Elmer). […]
Results filed as inconclusive are left out. Activity calls are given as the source filed them. Calls follow the shape of the dose curve; as a rule, active = well fitted inhibition curve with a large enough effect; inconclusive = small, poorly fitted or top-dose-only effect; inactive = flat fitted curve, though single readings scatter.
Possible outcomes: active, inactive

| COMPOUND | CLASSIFICATION |
| --- | --- |
| Cc1cc2ncc(-c3ccccc3)nc2cc1C | inactive |
| CC1CN(CC(=O)Nc2ccc3c(c2)Cc2cccc(-c4cc(=O)cc(N5CCOCC5)o4)c2S3)CC(C)O1 (stereo not given) | inactive |
| NC(=O)c1sc(-c2ccsc2)cc1N | inactive |
| COc1cc(N2CCN(C(C)=O)CC2)ccc1Nc1ncc(Cl)c(Nc2ccc(N3CCN(C(C)=O)CC3)cc2OC)n1 | active |
| OCCn1cc(-c2ccc3c(c2)CC/C3=N\O)c(-c2ccncc2)n1 | inactive |

###

assay: Primary qHTS for inhibitors of nuclear receptor binding SET domain protein 2 (NSD2) in an isogenic RCH-ACV NSD2 p.E1099K mutant (9B) (AID 1645876); conditions: RCH-ACV (leukaemia line) NSD2 E1099K (9B) viability, CellTiter-Glo, 72 h; series mostly up to 44.9 µM; further: potency means the concentration at half of the fitted maximal effect; nearly all actives have a fitted effect of over 70% in size
Results filed as inconclusive are left out. Active and inactive are the calls of the source. The call rests on the fitted dose curve; in most records, active means well fitted inhibition curve with a large enough effect; inconclusive means small, poorly fitted or top-dose-only effect; inactive means flat fitted curve, though single readings scatter.
Let's look at some compounds and their measured Potency.
ATTRIBUTE_MEASURED: Potency

| COMPOUND | ATTRIBUTE_MEASURED | OBSERVED_MEASUREMENT |
| --- | --- | --- |
| C=CC(=O)N1CCN(C(=O)c2cc(-c3cc(Cl)ccc3Cl)c(Cl)cc2OC)CC1 | Potency | 11.5 µM (active) |
| Nc1ncnc2c1c(I)cn2C1OC(CO)C(O)C1O (stereo not given) | Potency | 1.84 µM (active) |
| CC(C)(N)c1cc(C(=O)N[C@@H]2CCc3ccc(Oc4ccnc5c4CCC(=O)N5)cc3C2)cc(C(F)(F)F)c1 | Potency | 11.6 µM (active) |
| Nc1ncnc2c1ncn2[C@H]1O[C@H](CO)[C@@H](O)[C@@H]1O | Potency | 39.8 µM (active) |
| O=C(Nc1ccc(F)cc1)N1CCc2ccccc2C1c1ccc(C(F)(F)F)cc1 (stereo not given) | Potency | 18.3 µM (active) |
| COc1cc(-c2cc(-c3ccc(N4CCNCC4)cc3)cnc2C)cc(OC)c1OC | Potency | 9.34 µM (active) |
| Cc1ccc(-c2nn(C(C)(C)C)c3ncnc(N)c23)cc1 | Potency | 7.31 µM (active) |
| CN(C)CCOc1ccc(-c2nc(-c3ccc4c(c3)CC/C4=N/O)c(-c3ccncc3)[nH]2)cc1 | Potency | 3.66 µM (active) |
| COc1cc2ncnc(Nc3ccc(Oc4ccccc4)cc3)c2cc1OC | Potency | 4.59 µM (active) |
| C=C1C(=O)O[C@@H]2CC(C)=C([C@@H](C)CCCO)[C@@H](OC(=O)C(C)C)[C@H]12 | Potency | 14.2 µM (active) |
